// provenance: PubChem BioAssay AID1851

- Test target: Cytochrome P450 2D6 (Homo sapiens)
- Method: Cytochrome panel assay with activity outcomes
- Condition context: recombinant CYP, pro-luciferin dealkylation, luminescence, p450-cyp2d6; series mostly up to 57.1 µM
The campaign covered roughly 16,000 compounds. About 2,600 (16%) were called active. Inconclusive results (about 20%) are left out. Not all results are given here.
Measured metric: outcome

| Smiles entry | Measured metric | Measured result |
| --- | --- | --- |
| COc1cccc(Cn2c(=O)c(-c3ccc(Cl)cc3)nc3cnc(OC)nc32)c1 | outcome | inactive |
| Cc1nn(C)c(C(=O)NNC(=S)Nc2ccc(Cl)cc2)c1[N+](=O)[O-] | outcome | inactive |
| O=S(=O)(Nc1cccnc1Cl)c1ccc2c(c1)OCCO2 | outcome | inactive |
